# System: SK-BR-3
# ASSAY NAME: SRB colorimetric cell growth inhibition assay, SK-BR-3
# Assay type: cell-based
# TEST CONDITIONS: Homo sapiens, SK-BR-3, SK-BR-3; cell killing (cytotoxic effect); read-out: LC50 SK-BR-3
# Procedure: The finality of these assays is to interrupt the growth of an “in vitro” tumor cell culture by means a continued exhibition of the cells to the sample to be testing. A colorimetric type of assay, using sulforhodamine B (SRB) reaction has been adapted for a quantitative measurement of cell growth and viability (following the technique described by P. A. Skehan, et al., J. Natl. Cancer Inst. 1990, 82, 1107-1112). […] The values for mean +/− SD of data from triplicate wells are calculated. […]
Measured CC50 by item
Dear colleague, please return just the value in µM, with no unit written.

{"SMI": "COc1cc(-c2c3c4cc(OC)c(OC(=O)[C@@H](N)Cc5ccccc5)cc4oc(=O)c3n3ccc4c(OC(=O)[C@@H](N)Cc5ccccc5)c(OC)c(OC)cc4c23)ccc1OC(=O)[C@@H](N)Cc1ccccc1", "CC50, µM": 7.62}
{"SMI": "COc1cc2ccn3c(c(-c4ccc(OC(=O)[C@@H](N)Cc5ccccc5)c(OC)c4)c4c5cc(OC)c(OC(=O)[C@@H](N)Cc6ccccc6)cc5oc(=O)c43)c2cc1OC", "CC50, µM": 10.5}
{"SMI": "COc1cc(-c2c3c4cc(OC)c(OC(=O)C[C@H](N)C(C)C)cc4oc(=O)c3n3ccc4cc(OC(=O)C[C@H](N)C(C)C)c(OC)cc4c23)ccc1OC(=O)C[C@H](N)C(C)C", "CC50, µM": 2.89}
{"SMI": "COc1cc(-c2c3c4cc(OC)c(OC(=O)[C@@H]5CCCN5)cc4oc(=O)c3n3ccc4c(OC(=O)[C@@H]5CCCN5)c(OC)c(OC)cc4c23)ccc1OC(=O)[C@@H]1CCCN1", "CC50, µM": 6.39}
{"SMI": "COc1cc2c(cc1OC)-c1c(-c3ccc(OC(=O)[C@H](C)NC(=O)OC(C)(C)C)c(OC)c3)c3c4cc(OC)c(OC(=O)[C@H](C)NC(=O)OC(C)(C)C)cc4oc(=O)c3n1CC2", "CC50, µM": 11.7}
{"SMI": "COc1cc(-c2c3n(c4c(=O)[nH]c5cc(O)c(OC)cc5c24)CCc2cc(O)c(OC)cc2-3)ccc1O", "CC50, µM": 1.47}
{"SMI": "COc1cc(-c2c3c4cc(OC)c(OC(=O)CCCCCN)cc4oc(=O)c3n3ccc4c(OC(=O)CCCCCN)c(OC)c(OC)cc4c23)ccc1OC(=O)CCCCCN", "CC50, µM": 10.2}
{"SMI": "COc1cc(-c2c3c4cc(OC)c(OC(C)C)cc4oc(=O)c3n3ccc4c(OC(C)C)c(OC)c(OC)cc4c23)ccc1OC(C)C", "CC50, µM": 14.1}

q: // lookup CC50 for `COc1cc(-c2c3c4cc(OC)c(OC(=O)[C@@H](N)Cc5ccccc5)cc4oc(=O)c3n3ccc4cc(OC(=O)[C@@H](N)Cc5ccccc5)c(OC)cc4c23)ccc1OC(=O)[C@@H](N)Cc1ccccc1`
a: 1.09
